Sourced from ChEMBL document CHEMBL1145399

System: Oocyte
Assay: Activity at Wistar rat cortex AMPA receptor expressed in Xenopus laevis oocytes assessed as 2-fold increase of (S)-AMPA-induced current
Assay type: cell-based
Overview of recorded Activity for various molecules

[
  {
    "molecule": "O=S1(=O)N[C@H]2CCCN2c2ccccc21",
    "Activity": "24.6 µM"
  },
  {
    "molecule": "CCN1CNS(=O)(=O)c2cc(C(=O)OC)ccc21",
    "Activity": "> 100 µM"
  },
  {
    "molecule": "CCN1CNS(=O)(=O)c2cc(N)ccc21",
    "Activity": "> 300 µM"
  },
  {
    "molecule": "CCN1CNS(=O)(=O)c2cc(NC(C)=O)ccc21",
    "Activity": "> 300 µM"
  }
]

----------
System: Oocyte
Assay: Activity at Wistar rat cortex AMPA receptor expressed in Xenopus laevis oocytes assessed as 2-fold increase of (S)-AMPA-induced current
Format: cell-based
Property: Activity; scope: individual molecules
property-name: Activity

[
  {
    "molecule": "CCN1CNS(=O)(=O)c2cc(C(=O)O)ccc21",
    "property-name": "Activity",
    "observed-result": "> 100 µM"
  },
  {
    "molecule": "CN1C=NS(=O)(=O)c2cc(Cl)ccc21",
    "property-name": "Activity",
    "observed-result": "> 1000 µM"
  },
  {
    "molecule": "CCN1C=NS(=O)(=O)c2cc(C)ccc21",
    "property-name": "Activity",
    "observed-result": "300 µM"
  },
  {
    "molecule": "CCN1CNS(=O)(=O)c2cc(C(F)(F)F)ccc21",
    "property-name": "Activity",
    "observed-result": "> 300 µM"
  },
  {
    "molecule": "CN1CNS(=O)(=O)c2cc(N)ccc21",
    "property-name": "Activity",
    "observed-result": "> 300 µM"
  }
]
